experimental_system: mu receptor (Rattus norvegicus, UniProt P33535)
Construct: rat whole brain minus cerebellum for mu and delta sites; from tissue; host or cells: rat whole brain minus cerebellum, frozen pellet fraction
Sequence (P33535 whole entry): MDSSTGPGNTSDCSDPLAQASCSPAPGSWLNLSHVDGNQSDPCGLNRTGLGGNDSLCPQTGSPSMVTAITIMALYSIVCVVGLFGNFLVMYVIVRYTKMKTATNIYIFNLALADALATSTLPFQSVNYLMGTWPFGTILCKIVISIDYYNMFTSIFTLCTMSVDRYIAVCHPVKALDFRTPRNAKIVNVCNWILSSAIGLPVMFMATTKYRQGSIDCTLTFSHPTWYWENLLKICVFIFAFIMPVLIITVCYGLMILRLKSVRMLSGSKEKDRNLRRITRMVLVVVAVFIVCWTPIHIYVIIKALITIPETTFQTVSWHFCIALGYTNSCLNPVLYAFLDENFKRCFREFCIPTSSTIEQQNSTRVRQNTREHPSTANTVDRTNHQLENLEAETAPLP
test_summary: Opioid receptor binding displacement assay, mu site (rat whole brain minus cerebellum, 3H ligand)
Parameters: species or system Male Sprague Dawley rats
assay_setup: rat brain minus cerebellum, pH 7.4, 37° C., 20 minutes; read-out: Ki Mu
Counter-ions that a name gives are not always drawn.
quantity_measured: pKi
Just the number, please; pKi means minus log10 of the concentration in mol/L.

Completed entries (count: 3):
So what's the measured pKi for this one? "C[C@@H]1CN(CC[C@H](O)C2CCCCC2)CC[C@]1(C)c1cccc(O)c1"
8.85

May I ask what pKi has been recorded for "C[C@H]1CN(CC[C@H](O)C2CCCCC2)CC[C@@]1(C)c1cccc(O)c1" ?
9.39

Would you mind telling me what pKi value was observed for C[C@H]1CN(CCc2ccccc2)CC[C@@]1(C)c1cccc(O)c1 (relative stereo) [Compound D, hydrochloride, reference compound] ?
8.92

New cases:
Which pKi is reported for this compound? C[C@H]1CN(CCC(O)C2CCCCC2)CC[C@@]1(C)c1cccc(O)c1 (relative stereo) [Example 27, hydrochloride]
9.66

Item C[C@H]1CN(CCC(O)c2ccccc2)CC[C@@]1(C)c1cccc(O)c1 (relative stereo) [Compound A, hydrochloride, reference compound] has what recorded pKi?
9.00

----------
experimental_system: kappa receptors (Rattus norvegicus)
Construct: sixty male Long-Evans hooded rats; from tissue; host or cells: whole living male Long-Evans hooded rats (in vivo)
Sequence (P34975 whole entry): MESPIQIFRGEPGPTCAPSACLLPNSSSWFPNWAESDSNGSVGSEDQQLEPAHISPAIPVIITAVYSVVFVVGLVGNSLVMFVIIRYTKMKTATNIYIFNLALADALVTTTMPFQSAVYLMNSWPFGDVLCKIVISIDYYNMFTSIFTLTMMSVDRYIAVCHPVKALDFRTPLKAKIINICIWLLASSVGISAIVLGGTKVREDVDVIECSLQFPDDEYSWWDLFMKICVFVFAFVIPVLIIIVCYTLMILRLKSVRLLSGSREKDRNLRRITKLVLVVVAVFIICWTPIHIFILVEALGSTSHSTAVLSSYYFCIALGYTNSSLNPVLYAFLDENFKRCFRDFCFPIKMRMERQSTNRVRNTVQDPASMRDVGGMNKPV
test_summary: Rat diuresis assay, antagonism of bremazocine-induced urination
Format: in vivo, male Long-Evans hooded rats
assay_setup: sc, 5 h, rats, s.c., urinary output reduced to 50% of effect of 0.08 mg/kg bremazocine alone, five hours after injection, read-out: AD50 Five Hours
Where a name gives a salt, the structure may show the parent alone.
So basically every entry gets a class from its ED50, ranges being low band (below 0.8 mg/kg), middle band (0.8 mg/kg to below 2 mg/kg), high band (2 mg/kg or more)

Take a look at these entries with their results.
Lab note: sort C[C@@H]1CN(CCCc2cccs2)CC[C@]1(C)c1cccc(O)c1 (stereo in doubt) [Example 37, hydrochloride] into the matching ED50 band.
middle band

Bin? CC1CN(CCCc2cccs2)CCC1(C)c1cccc(O)c1 (stereo not shown) [Example 35, hydrochloride]
middle band

Into which category would you place CC1CN(CCC(C)(C)C)CCC1(C)c1cccc(O)c1 (stereo not shown) [Example 12, hydrochloride] ?
high band

Entry C[C@H]1CN(CCC(O)c2ccccc2)CC[C@@]1(C)c1cccc(O)c1 (relative stereo) [Compound A, hydrochloride, reference compound] belongs to which category?
high band

Kindly identify the class of CC1CN(CC2CCCCC2)CCC1(C)c1cccc(O)c1 (stereo not shown) [Example 10, hydrochloride] .
high band

---
Hi there! Could you help me figure out the category for C[C@H]1CN(CCC2C=CCC2)CC[C@@]1(C)c1cccc(O)c1 (relative stereo) [Example 7, hydrochloride] please?
middle band

Form: Item = CCCCCCN1CCC(C)(c2cccc(O)c2)C(C)C1 (stereo not shown) [Example 22, hydrochloride] ; Class = ?
low band

Dear colleague, I would appreciate it if you could identify the bin for CC1CN(CC2CCCC2)CCC1(C)c1cccc(O)c1 (stereo not shown) [Example 5, hydrochloride] and reply at your convenience.
middle band
